Value source: patent US20230286973A1

test: Liver Microsome Stability Assay (mouse); conditions: mouse liver microsomes, with NADPH, 1.0 uM compound
Form field: Liver Microsome Stability (Multiple Species): Mouse - % Remaining after 30 min w/NADPH (one value per entry).
Just the number in %, nothing appended.

Use these answered entries as a reference point.
>>> recorded_value("CCc1cc(/C=C/c2csc(NC(=O)c3cccn3Cc3ccnc(F)c3)n2)no1")
2.24
>>> recorded_value("Cc1c(/C=C/c2csc(NC(=O)c3cccn3Cc3ccncc3)n2)ncn1C(C)C")
2.14
>>> recorded_value("CC(=O)N1CCC(Oc2cc(F)c(N3CCC[C@@H]3c3csc(NC(=O)c4cccn4Cc4ccnc(F)c4)n3)c(F)c2)CC1")
1.29

With those in mind, consider the next compound.
Lookup: Determine from records and report Liver Microsome Stability (Multiple Species): Mouse - % Remaining after 30 min w/NADPH for NC(=O)CCCn1cccc1C(=O)Nc1nc([C@H]2CCCN2c2ccccc2)cs1
Found: 26.6

----------
tested on: IL-2-FL/Gaussia Luciferase; experiment: Dox Induced IL2-FL-Gluc Assay; format: cell-based; conditions: ratio of IL2FLGluc IC50 to PD1ssGluc IC50
Entries annotated with measured 24 hr Dox Inducible IL2FLGluc 293FRT/TO: IL2/PD1
Give the value as a plain number.

>>> recorded_value("O=C(Nc1nc([C@H]2CCCN2c2ccc(OC3CCN(C(=O)C(F)(F)F)CC3)cc2)cs1)c1cccn1Cc1ccnc(F)c1")
1.3
>>> recorded_value("CC(=O)Nc1ccc(N2CCC[C@@H]2c2csc(NC(=O)c3cccn3Cc3ccnc(F)c3)n2)cc1")
2.6
>>> recorded_value("O=C(Nc1nc([C@H]2CCCN2c2cccnn2)cs1)c1cccn1Cc1ccncc1")
4.1

Now consider a different molecule.
Lookup: Fill: 24 hr Dox Inducible IL2FLGluc 293FRT/TO: IL2/PD1 (IL-2-FL/Gaussia Luciferase) for this molecule CC(C)Oc1ccc(N2CCC[C@@H]2c2csc(NC(=O)c3cccn3Cc3ccncc3)n2)cc1
Found: 1.5

----------
experiment: Liver Microsome Stability Assay (monkey); conditions: monkey liver microsomes, with NADPH, 1.0 uM compound
API: label(entry) gives class 1 if the entry's Liver Microsome Stability (Multiple Species): Monkey - % Remaining after 30 min w/NADPH is strictly smaller than 0.3%; on equality or larger values it gives class 0.

Illustrative cases are given below, each with its answer.
>>> classification("CC(=O)N[C@@H](C)c1ccc(N2CCC[C@@H]2c2csc(NC(=O)c3cccn3Cc3ccncc3)n2)cc1")
"class 1"
>>> classification("O=C(Nc1nc([C@H]2CCCN2c2ccccc2)cs1)c1cccn1-c1cccc2cnccc12")
"class 1"
>>> classification("NC(=O)c1ccc(N2CCC[C@@H]2c2csc(NC(=O)c3cccn3CC3CCOCC3)n2)cc1")
"class 0"
>>> classification("CC(CCC#N)n1cccc1C(=O)Nc1nc([C@H]2CCCN2c2ccccc2)cs1 (stereo partly shown)")
"class 0"
>>> classification("CC(C)c1cccc2nc(/C=C/c3csc(NC(=O)c4cccn4Cc4ccnc(F)c4)n3)cn12")
"class 0"
>>> classification("CC(=O)N1CCC(Oc2ccc(N3CCC[C@@H]3c3csc(NC(=O)c4cccn4Cc4ccnc(F)c4)n3)c(Cl)c2)CC1")
"class 1"

Field: next molecule
Lookup: Strictly below 0.3% in Liver Microsome Stability (Multiple Species): Monkey - % Remaining after 30 min w/NADPH? O=C(Nc1nc([C@H]2CCCN(c3ccccn3)C2)cs1)c1cccn1Cc1ccncc1
Found: class 1
